Test system: peripheral blood leukocytes (PBLs) on P-selectin and ICAM-1
Assay: Autoperfused microflow chamber assay, chamber coated with P-selectin and ICAM-1
Assay type: in vivo
Conditions: metabolite administered to mice with laser-induced CNV; FIGS. 9A-D
VALUE KIND: Leucocyte rolling

| COMPOUND | OBSERVED |
| --- | --- |
| CCC1OC1CC=CCC=CCC=CCC=CCC=CCCC(=O)O (centres unmarked) [19,20-EDP, 19,20-epoxydocosapentaenoic acid] | decreased rolling |
| CCC1OC1C/C=C\C/C=C\C/C=C\C/C=C\CCCC(=O)O (centres unmarked) [17,18-EEQ, 17,18-epoxyeicosatetraenoic acid] | decreased rolling |
